Tested on: immune system of healthy monkeys
experiment.summary: Immune indicators of cynomolgus monkeys after one month of administration (Example 5)
Format: in vivo, cynomolgus monkey
assay.conditions: once a day for 4 weeks, end of administration
Where no end group is shown, it is not given here.
Below: a set of entries, each annotated with reported TNF-α.
Use pg/mL as the unit, but write only the number.

Worked cases, answers included:
residues: FKGEQAGAGE [APL2]
TNF-α (pg/mL): 2.42
--
residues: MGPKGRTVIIEQSLGSPKVTK [APL21]
TNF-α (pg/mL): 2.16
--
residues: SIDLKDKKYKNIGAKLVQLVANNTNEEA [APL20]
TNF-α (pg/mL): 2.45

# sequence YAKQATLALA [APL7] ; its TNF-α = 2.44

----------
Test system: immune system of healthy monkeys
experiment.summary: Immune indicators of cynomolgus monkeys after one month of administration (Example 5)
Format: in vivo, cynomolgus monkey
assay.conditions: once a day for 4 weeks, end of administration
Where no end group is shown, it is not given here.
Below: a set of entries, each annotated with reported CD3%.
Use % as the unit, but write only the number.

Worked cases, answers included:
residues: FKGEQAGAGE [APL2]
endpoint.unit: %
CD3%: 63.37
--
residues: YAKQATLALA [APL7]
endpoint.unit: %
CD3%: 61.83
--
residues: MGPKGRTVIIEQSLGSPKVTK [APL21]
endpoint.unit: %
CD3%: 66.16

Alright, here's another sequence for you.
# sequence SIDLKDKKYKNIGAKLVQLVANNTNEEA [APL20] ; its CD3% = 62.96

----------
Below: a set of entries, each annotated with reported Inflammation score and area under the time curve (AUC).
Test system: CIA rats with latent tuberculosis infection
assay.conditions: peptides 0.2 mmol, adalimumab 1 mg/kg, tail i.v. once every other day for 21 days
Where no end group is shown, it is not given here.
In your answer, state the number alone without any accompanying words.

# sequence SIDLKDKKYKNIGAKLVQLVANNTNEEA [APL20] ; its Inflammation score and area under the time curve (AUC) = 49.62

# sequence FKGEQAGAGE [APL2] ; its Inflammation score and area under the time curve (AUC) = 48.03

# sequence MGPKGRTVIIEQSLGSPKVTK [APL21] ; its Inflammation score and area under the time curve (AUC) = 53.06

# sequence YAKQATLALA [APL7] ; its Inflammation score and area under the time curve (AUC) = 55.93

----------
system: HLA-DR1 (Homo sapiens, UniProt P01903+P01911, A100R/D57E/F55L/F60I/F76Y/I96L/L162R/M171V/P40L/Q125E/R42F/V115G/Y59C)
experiment.summary: Determination of polypeptide affinity (fluorescence polarization competition)
Format: binding
Method: The reaction system was at pH 7.4. Before use, protease inhibitor cocktail was added, and incubated at 37° C. for 30 min. The fluorescence polarization values were read. […] The relative binding rate of other wells was calculated according to the formula=(FP_sample−FP_free)/(FP_no_comp−FP_free). A curve was plotted using the relative binding rate and the concentration of the test polypeptide, and the IC50 value was calculated by curve fitting.
Where no end group is shown, it is not given here.
experimental.endpoint: pIC50
Give only the number. pIC50 is defined as minus log10 of concentration in molar units.

# sequence PGYVKQGTLGLAT [APL3] ; its pIC50 = 5.48

----------
Test system: immune system of healthy monkeys
experiment.summary: Immune indicators of cynomolgus monkeys after one month of administration (Example 5)
Type: in vivo, cynomolgus monkey
assay.conditions: once a day for 4 weeks, end of administration
Where no end group is shown, it is not given here.
experimental.endpoint: IL-4 (pg/mL)
Use pg/mL as the unit, but write only the number.

residues: MGPKGRTVIIEQSLGSPKVTK [APL21]
system: immune system of healthy monkeys
number: 1.90
//
residues: SIDLKDKKYKNIGAKLVQLVANNTNEEA [APL20]
system: immune system of healthy monkeys
number: 2.16
//
residues: FKGEQAGAGE [APL2]
system: immune system of healthy monkeys
number: 2.12

# sequence YAKQATLALA [APL7] ; its IL-4 = 2.04

----------
Tested on: immune system of healthy rats
experiment.summary: Immune indicators of SD rats after one month of administration (Example 4)
Format: in vivo, rat
assay.conditions: once a day for 4 weeks, end of administration
Where no end group is shown, it is not given here.
Below: a set of entries, each annotated with reported IFN-γ.
Use pg/mL as the unit, but write only the number.

Worked cases, answers included:
residues: SIDLKDKKYKNIGAKLVQLVANNTNEEA [APL20]
IFN-γ, pg/mL: 2.58
--
residues: FKGEQAGAGE [APL2]
IFN-γ, pg/mL: 2.47
--
residues: YAKQATLALA [APL7]
IFN-γ, pg/mL: 2.33

Alright, here's another sequence for you.
# sequence MGPKGRTVIIEQSLGSPKVTK [APL21] ; its IFN-γ = 2.64

----------
System: immune system of healthy rats
experiment.summary: Immune indicators of SD rats after one month of administration (Example 4)
Assay type: in vivo, rat
assay.conditions: once a day for 4 weeks, end of administration
Where no end group is shown, it is not given here.
Below: a set of entries, each annotated with reported CD3%.

residues: YAKQATLALA [APL7]
result: 36.69 ± 17^ %

residues: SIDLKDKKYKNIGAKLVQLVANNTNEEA [APL20]
result: 36.96 ± 9.81%

# lookup: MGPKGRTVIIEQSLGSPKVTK [APL21] on immune system of healthy rats, CD3% = 38.16 ± 8.98%

# lookup: FKGEQAGAGE [APL2] on immune system of healthy rats, CD3% = 37.4 ± 10.52%

----------
Test system: HLA-DR1
experiment.summary: Determination of polypeptide affinity (fluorescence polarization competition)
Type: binding, human
assay.conditions: competition with 25 nM fluorescently-labeled polypeptide, 500 nM HLA-DR1, pH 7.4, 37° C. 30 min, fluorescence polarization, curve fitting
Where no end group is shown, it is not given here.
experimental.endpoint: IC50 (µM)
Use µM as the unit, but write only the number.

# lookup: RSFTAASSETGVG [APL14] on HLA-DR1, IC50 = 6.54

----------
Below: a set of entries, each annotated with reported CD8%.
System: immune system of healthy monkeys
experiment.summary: Immune indicators of cynomolgus monkeys after one month of administration (Example 5)
Type: in vivo, cynomolgus monkey
assay.conditions: once a day for 4 weeks, end of administration
Text: Cynomolgus monkeys were used to investigate the effects of the SE-DR affinity peptide on the immune indicators of cynomolgus monkeys after continuous administration for one month. […] At the end of administration, the immune indicators, including the serum anti-FNS007 antibodies, the immunoglobulins of different serotypes, the serum complement, the peripheral blood T lymphocyte and the serum cytokines, were observed.
Where no end group is shown, it is not given here.
Use % as the unit, but write only the number.

Worked cases, answers included:
residues: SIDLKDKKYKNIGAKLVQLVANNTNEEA [APL20]
endpoint.unit: %
CD8%: 22.97
--
residues: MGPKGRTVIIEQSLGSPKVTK [APL21]
endpoint.unit: %
CD8%: 23.43
--
residues: YAKQATLALA [APL7]
endpoint.unit: %
CD8%: 23.72

Alright, here's another sequence for you.
# lookup: FKGEQAGAGE [APL2] on immune system of healthy monkeys, CD8% = 21.74

----------
Below: a set of entries, each annotated with reported IL-4.
Test system: immune system of healthy rats
experiment.summary: Immune indicators of SD rats after one month of administration (Example 4)
Assay type: in vivo, rat
assay.conditions: once a day for 4 weeks, end of administration
Where no end group is shown, it is not given here.
Use pg/mL as the unit, but write only the number.

Worked cases, answers included:
residues: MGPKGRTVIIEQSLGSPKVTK [APL21]
IL-4, pg/mL: 2.32

residues: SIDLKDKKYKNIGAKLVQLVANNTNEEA [APL20]
IL-4, pg/mL: 2.03

residues: FKGEQAGAGE [APL2]
IL-4, pg/mL: 1.96

Alright, here's another sequence for you.
# sequence YAKQATLALA [APL7] ; its IL-4 = 2.55

----------
Below: a set of entries, each annotated with reported IFN-γ.
Test system: immune system of healthy monkeys
experiment.summary: Immune indicators of cynomolgus monkeys after one month of administration (Example 5)
Format: in vivo, cynomolgus monkey
assay.conditions: once a day for 4 weeks, end of administration
Where no end group is shown, it is not given here.
Use pg/mL as the unit, but write only the number.

Worked cases, answers included:
residues: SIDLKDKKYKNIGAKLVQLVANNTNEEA [APL20]
IFN-γ / pg/mL: 5.18

residues: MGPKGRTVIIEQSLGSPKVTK [APL21]
IFN-γ / pg/mL: 5.03

residues: FKGEQAGAGE [APL2]
IFN-γ / pg/mL: 5.09

Alright, here's another sequence for you.
# sequence YAKQATLALA [APL7] ; its IFN-γ = 5.27
